Origin of values: paper PMC10702309

IC50 reference
target: jack bean urease (Canavalia ensiformis, UniProt P07374); experiment: Antiurease assay; assay type: biochemical
Sequence (P07374 whole entry, looked up): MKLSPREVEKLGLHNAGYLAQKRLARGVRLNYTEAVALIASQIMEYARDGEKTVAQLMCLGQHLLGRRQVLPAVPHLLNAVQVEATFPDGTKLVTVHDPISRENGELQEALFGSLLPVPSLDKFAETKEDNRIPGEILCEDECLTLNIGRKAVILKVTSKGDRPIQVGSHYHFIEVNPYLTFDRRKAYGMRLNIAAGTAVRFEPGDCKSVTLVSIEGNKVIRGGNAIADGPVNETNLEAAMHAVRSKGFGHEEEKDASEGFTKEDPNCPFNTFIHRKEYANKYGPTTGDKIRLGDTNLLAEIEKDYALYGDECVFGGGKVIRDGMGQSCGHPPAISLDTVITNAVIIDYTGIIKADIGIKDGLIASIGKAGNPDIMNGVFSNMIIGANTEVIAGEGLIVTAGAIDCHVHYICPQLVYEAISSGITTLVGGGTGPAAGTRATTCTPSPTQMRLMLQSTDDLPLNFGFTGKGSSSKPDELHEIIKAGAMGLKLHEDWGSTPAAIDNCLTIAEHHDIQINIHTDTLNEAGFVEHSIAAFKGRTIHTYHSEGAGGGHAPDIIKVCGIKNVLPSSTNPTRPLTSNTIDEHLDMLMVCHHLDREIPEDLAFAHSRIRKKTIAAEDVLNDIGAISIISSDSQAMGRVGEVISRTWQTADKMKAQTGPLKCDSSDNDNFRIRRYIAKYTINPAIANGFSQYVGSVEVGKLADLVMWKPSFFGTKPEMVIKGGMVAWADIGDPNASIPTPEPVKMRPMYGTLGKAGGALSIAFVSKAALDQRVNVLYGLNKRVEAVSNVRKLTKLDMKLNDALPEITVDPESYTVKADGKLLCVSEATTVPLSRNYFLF
Quick note: give the figure in µM, leave out the unit.

# annotated cases, reported IC50 shown
compound="Cc1ccnc(NS(=O)(=O)c2ccc(NC(=O)c3ccccc3Nc3cccc(C)c3C)cc2)n1 [conjugate 16]" readout_type=IC50 assay_result=95
compound="Cc1cccc(Nc2ccccc2C(=O)Nc2ccc(S(=O)(=O)Nc3nccs3)cc2)c1C [conjugate 14]" readout_type=IC50 assay_result=14.8
compound="Cc1cccc(Nc2ccccc2C(=O)Nc2ccc(S(=O)(=O)NC(=N)N)cc2)c1C [conjugate 19]" readout_type=IC50 assay_result=31.3

Field: next compound
Entry under test: Cc1noc(NS(=O)(=O)c2ccc(NC(=O)Cc3ccccc3Nc3c(Cl)cccc3Cl)cc2)c1C [conjugate 5] . Its IC50 was 23.1

---

target: UniProtKB P07374; test: Enzyme kinetic studies; type: biochemical; details: read-out: Ki (inhibition constant); calculated from secondary Lineweaver–Burk plots
Readout type: pKi
Keep it numeric: pKi is minus log10 of the concentration in mol/L.

Tested system UniProtKB P07374; pKi recorded for NC(N)=S [thiourea, reference compound] was 4.74

---

target: jack bean urease (Canavalia ensiformis, UniProt P07374); test: Enzyme kinetic studies; format: biochemical; conditions: urease, Lineweaver–Burk plots
Readout type: mode of inhibition

compound="Cc1cccc(Nc2ccccc2C(=O)Nc2ccc(S(=O)(=O)Nc3ncccn3)cc2)c1C [conjugate 15]" assay_result=mixed
compound="N=C(N)NS(=O)(=O)c1ccc(NC(=O)Cc2ccccc2Nc2c(Cl)cccc2Cl)cc1 [conjugate 11]" assay_result=mixed
compound="O=C(Cc1ccccc1Nc1c(Cl)cccc1Cl)Nc1ccc(S(=O)(=O)Nc2nccs2)cc1 [conjugate 6]" assay_result=mixed
compound="Cc1cccc(Nc2ccccc2C(=O)Nc2ccc(S(=O)(=O)Nc3onc(C)c3C)cc2)c1C [conjugate 13]" assay_result=mixed
compound="Cc1cccc(Nc2ccccc2C(=O)Nc2ccc(S(=O)(=O)Nc3nccs3)cc2)c1C [conjugate 14]" assay_result=mixed

Field: next compound
Entry under test: Cc1ccnc(NS(=O)(=O)c2ccc(NC(=O)Cc3ccccc3Nc3c(Cl)cccc3Cl)cc2)n1 [conjugate 8] . Its mode of inhibition was mixed

---

IC50 reference
biological target: jack bean urease (Canavalia ensiformis, UniProt P07374); assay: Antiurease assay; assay type: biochemical

# annotated cases, reported IC50 shown
compound="Cc1ccnc(NS(=O)(=O)c2ccc(NC(=O)Cc3ccccc3Nc3c(Cl)cccc3Cl)cc2)n1 [conjugate 8]" readout_type=IC50 assay_result="9.5 µM"
compound="Cc1cc(NS(=O)(=O)c2ccc(NC(=O)c3ccccc3Nc3cccc(C)c3C)cc2)no1 [conjugate 17]" readout_type=IC50 assay_result="8.35 µM"

Field: next compound
Entry under test: O=C(Cc1ccccc1Nc1c(Cl)cccc1Cl)Nc1ccc(S(=O)(=O)Nc2nccs2)cc1 [conjugate 6] . Its IC50 was 16.2 µM
